For each of the compounds below, state its inhibition at 40 µM.
tested on: P3 promoter (RNAIII / delta-toxin expression); assay: USA300-P3-Luc reporter screen for inhibition of RNAIII induction (P3 promoter activation by AIP); format: cell-based, Staphylococcus aureus; conditions: Staphylococcus aureus; 40 μM compound, 2 hours at 37° C., luminescence; relative to positive control (USA300 inhibitory AIP supernatant); read-out: % Inhibition

Problem: Request - read-out inhibition at 40 µM | tested on P3 promoter (RNAIII / delta-toxin expression) | compound COc1ccnc(C[S+]([O-])c2nc3ccc(OC(F)F)cc3[nH]2)c1OC (centres unmarked)
Result: 52.8%

Problem: Request - read-out inhibition at 40 µM | tested on P3 promoter (RNAIII / delta-toxin expression) | compound Cc1ccc(Cl)c(Nc2ccccc2C(=O)O)c1Cl [SODIUM MECLOFENAMATE]
Result: 90.9%

Problem: Request - read-out inhibition at 40 µM | tested on P3 promoter (RNAIII / delta-toxin expression) | compound O=C1c2cccc(O)c2C(=O)c2c(O)cccc21
Result: 76.1%

Problem: Request - read-out inhibition at 40 µM | tested on P3 promoter (RNAIII / delta-toxin expression) | compound Cc1c(Nc2ncccc2C(=O)O)cccc1C(F)(F)F
Result: 69.2%

Problem: Request - read-out inhibition at 40 µM | tested on P3 promoter (RNAIII / delta-toxin expression) | compound O=C(c1ccc(F)cc1)C1CCN(CCn2c(=S)[nH]c3ccccc3c2=O)CC1
Result: 59%

Problem: Request - read-out inhibition at 40 µM | tested on P3 promoter (RNAIII / delta-toxin expression) | compound CC(C)c1cc2c(c(O)c1O)[C@@]1(C(=O)O)CCCC(C)(C)[C@@H]1CC2
Result: 95.8%

Problem: Request - read-out inhibition at 40 µM | tested on P3 promoter (RNAIII / delta-toxin expression) | compound C[C@H](CCC(=O)O)[C@H]1CC[C@H]2[C@@H]3CC[C@@H]4CCCC[C@]4(C)[C@H]3CC[C@]12C
Result: 61.3%

Problem: Request - read-out inhibition at 40 µM | tested on P3 promoter (RNAIII / delta-toxin expression) | compound Cc1cc(CC(=O)O)n(C)c1C(=O)c1ccc(Cl)cc1 [ZOMEPIRAC SODIUM]
Result: 64.8%
